Test system: U251 CNS
Experiment: NCI-60 one-dose screen, 48 h (100 = growth as untreated, 0 = no growth, -100 = all killed)
Conditions: 10 µM unless noted
Protocol: Growth inhibition of the U251 human tumor cell line is measured as a screen for anti-cancer activity. Cells are grown in 96 well plates and exposed to the test compound for 48 hours. Compounds are tested at a single concentration, which is 10^-5 M for most compounds. The reported endpoint is percent growth (GI% or GIPRCNT), where numbers from 0 - 100% represent growth inhibition, and numbers from -100% - 0 represent cell death. For example, a value of 40 represents 60% growth inhibition. […]
The panel holds about 83,000 compounds, 20% with a hit somewhere; the sample as a whole holds those more often.
# strict inequality: growth < 30% yields 1 (yes), everything else yields 0 (no)

{"columns": ["COMPOUND", "CATEGORY_LABEL"],
 "data": [
  ["COc1cc(/C=C/C(=O)/C=C(/C=C/c2ccc(OC(C)=O)c(OC)c2)OB(F)F)ccc1OC(C)=O", "0 (no)"],
  ["Nc1cc(N)c2nc(-c3ccccc3)c(NCCc3ccc(Cl)c(Cl)c3)nc2c1", "1 (yes)"],
  ["C/C(=C\\c1ccc2ccccc2c1)[N+](=O)[O-]", "0 (no)"],
  ["COC(=O)c1ccc2[nH]c(O)c(C(=Nc3ccc(N(C)C(=O)CN4CCN(C)CC4)cc3)c3ccc(OC)cc3)c2c1", "1 (yes)"],
  ["O=C(Nc1cccc2[nH]c(C(F)(F)F)nc12)c1ccc(F)cc1", "0 (no)"]
]}

IN: Given C=CCC(CCC(CC=C)C(=O)OCC)C(=O)OCC (stereo not given) , is recorded growth strictly lower than 30%?
OUT: 0 (no)

IN: Given CC(O)CN(CC(C)O)N(CC(C)O)CC(C)O (stereo not given) , is recorded growth strictly lower than 30%?
OUT: 0 (no)

IN: Given COc1cc(NC(C)CCCN)c2nccc(C)c2c1OC (stereo not given) , is recorded growth strictly lower than 30%?
OUT: 0 (no)

IN: Given O=C1C(Cl)=C(Nc2ccc(Nc3ccccc3)c(NC3=C(Cl)C(=O)c4ccccc4C3=O)c2)C(=O)c2ccccc21 , is recorded growth strictly lower than 30%?
OUT: 0 (no)

IN: Given CCCCCCCCCc1cc[n+](CC(=O)c2ccc([N+](=O)[O-])cc2)cc1 , is recorded growth strictly lower than 30%?
OUT: 1 (yes)
